- Assay Explanation: Ratio of drug level in brain to plasma in transgenic mouse overexpressing APP Swedish FAD mutant at 7.2 mg/kg, po and 0.7 mg/kg, iv
- Format: ADME, organism-based
- Protocol Conditions: read-out: BPR
Attribute Measured: Kp
Output: the number by itself.

Which Kp is reported for this compound? COc1cc(Nc2nc3c(s2)CCCC3c2ccccc2)ccc1-n1cnc(C)c1 (stereo unspecified)
0.4

* * *

- Test System: Gamma-secretase
- Assay Explanation: Inhibition of gamma secretase in human H4 cells overexpressing human APP assessed as reduction in amyloid beta-40 secretion after 22 hrs
- Type: cell-based
Attribute Measured: IC50 (µM)
The reply should contain only the number, in µM.

Using the record for COc1cc(Nc2nc(C)c(Cc3cccc(Cl)c3)s2)ccc1-c1cnco1 , report its IC50.
3.7

* * *

- Test System: Gamma-secretase
- Assay Explanation: Inhibition of gamma secretase in human H4 cells overexpressing human APP assessed as reduction in amyloid beta-42 secretion after 22 hrs
- Type: cell-based
Attribute Measured: IC50 (µM)

Here's what some known entries look like.
INSERT INTO results (molecule, attribute_measured, unit_of_measure, readout_number) VALUES
  ('Cc1nsc(-c2ccc(Nc3nc4c(s3)CCCC4c3ccccc3)cc2)n1 (configuration not stated)', 'IC50', 'µM', 0.651),
  ('COc1cc(Nc2nc(C)c(Cc3cccc(Cl)c3)s2)ccc1-n1cnc(C)c1', 'IC50', 'µM', 0.214),
  ('COc1cc(Nc2nc3c(s2)CCCC3c2ccccc2)ccc1-c1sc(C)nc1C (configuration not stated)', 'IC50', 'µM', 0.212);

[1] Cc1ncc(-c2ccc(Nc3nc4c(s3)CCCC4c3ccccc3)cc2)o1 (configuration not stated)
[2] COc1ccc(Br)cc1-c1csc(Nc2ccc(-n3cnc(C)c3)cc2)n1
I need your help: which of the pair 1 , 2 has higher IC50? Answer by quoting the chosen item's label.
2
(2: 0.88 µM, 1: 0.133 µM)

* * *

- Test System: Gamma-secretase
- Assay Explanation: Inhibition of gamma secretase in human H4 cells overexpressing human APP assessed as reduction in amyloid beta-42 secretion after 22 hrs
- Assay type: cell-based
Attribute Measured: IC50 (nM)

INSERT INTO assay_data (compound, readout_number) VALUES
  ('Cc1cn(-c2ccc(Nc3nc4c(s3)CCCC4c3ccccc3)cc2C#N)cn1 (configuration not stated)', 123);

[A] Cc1cn(-c2ccc(Nc3nc4c(s3)CCCC4c3ccccc3)cc2O)cn1 (configuration not stated)
[B] Cc1cn(-c2ccc(Nc3nc4c(s3)CCCC4c3ccccc3)cc2F)cn1 (configuration not stated)
[C] COc1cc(Nc2nc3c(s2)CCCC3c2ccccc2)ccc1-c1cnc(C)o1 (configuration not stated)
[D] Cc1cc(-c2ccc(Nc3nc4c(s3)CCCC4c3ccccc3)cc2)nc(C)n1 (configuration not stated)
Please put the entries in order of rising IC50. Returns: the labels listed in the requested order.
B, C, A, D
(B: 52 nM, C: 86 nM, A: 209 nM, D: 483 nM)

[1] Cc1ncc(C)c(-c2ccc(Nc3nc4c(s3)CCCC4c3ccccc3)cc2)n1 (configuration not stated)
[2] Cc1cn(-c2ccc(Nc3nc4c(s3)CCCC4c3ccccc3)cc2C)cn1 (configuration not stated)
[3] COc1cc(Nc2nc3c(s2)CCCC3c2ccccc2)ccc1-n1cnc(C)c1 (configuration not stated)
[4] COc1cc(Nc2nc3c(s2)CCCC3c2ccccc2)ccc1-c1cnn(C)c1 (configuration not stated)
Task field, ranking: reported IC50, descending order. I would appreciate it if you listed the labels in the requested order.
1, 2, 4, 3
(1: 2870 nM, 2: 733 nM, 4: 244 nM, 3: 44 nM)

[I] COc1cc(Nc2nc3c(s2)CCCC3c2ccccc2)ccc1C#N (configuration not stated)
[II] COc1cc(Nc2nc(C(C)(C)c3ccc(Cl)cc3)cs2)ccc1-n1cnc(C)c1
Sorting ascending by IC50, which comes first: I or II ? Let me know the label of the one you choose.
II

* * *

- Test System: Gamma-secretase
- Assay Explanation: Inhibition of gamma secretase in human H4 cells overexpressing human APP assessed as reduction in amyloid beta-42 secretion after 22 hrs
- Assay type: cell-based
Attribute Measured: IC50 (nM)

INSERT INTO assay_data (molecule, unit_of_measure, readout_number) VALUES
  ('Cc1cn(-c2ccc(Nc3nc4c(s3)CCCC4c3ccccc3)cc2)cn1 (stereo unspecified)', 'nM', 133),
  ('COc1cc(Nc2nc(C)c(Cc3cccc(Cl)c3)s2)ccc1-c1cnco1', 'nM', 815);

[A] c1ccc(C2CCCc3sc(Nc4ccc(-c5ccnnc5)cc4)nc32)cc1 (stereo unspecified)
[B] Cc1cn(-c2ccc(Nc3nc4c(s3)CCCC4c3ccccc3)cc2Cl)cn1 (stereo unspecified)
// select label with min value of measured IC50 from [ A , B ] Please respond with the label that marks your chosen entry.
A
(A: 376 nM, B: 675 nM)
